Data origin: PubChem BioAssay

Test: E. coli acrAB mutant growth effects, primary screen, E. coli filamentation inducers, strain DRC39, OD650, 24 h (AID 1178);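 further: growth measured as culture turbidity by optical density at 650 nm; test concentration not given here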
Details: higher = more signal, called active from +8 up or from −8 down
Give yes when the value for z-score is at least -0.3. Give no when it is less.

COCCOC(=O)N1C(=O)[C@@]2(c3cc(C#Cc4ccc(OC)cc4)ccc31)[C@H](C(=O)N1CCCCCCC1)[C@H]1C(=O)O[C@H](c3ccccc3)[C@H](c3ccccc3)N1[C@@H]2c1ccc(O)cc1 ... no
Cc1ccc(S[C@]2(C(=O)NC(C)C)CC(=O)N(Cc3ccccc3C(F)(F)F)[C@@H]2c2ccc(CO)cc2I)cc1 ... yes
O=C1O[C@@H](c2ccccc2)[C@@H](c2ccccc2)N2[C@@H](c3ccc(O)cc3)[C@]3(C(=O)Nc4ccc(C#CC5=CCCCC5)cc43)[C@@H](C(=O)N3CCN(c4ncccn4)CC3)[C@H]12 ... yes
CCOC(=O)C[C@H]1[C@H](OC(=O)c2ccc(-c3ccccc3)cc2)[C@@H](NC(=O)c2ccc3ccccc3c2)c2cc(OCCCO)ccc2N1C(=O)c1ccc2ccccc2n1 ... no
CC(C)C(CO)N1C(=O)[C@]2(C)C3C(=O)OCCC/C=C\[C@H]3OC23C=CCN(c2ccc(Cl)cc2)C(=O)[C@@H]13 (stereo partly specified) ... no

Query block: Evaluate CCCCN1CC=CC23O[C@@H]4C=CCOC(=O)[C@@H]4[C@H]2C(=O)N(C(C)CO)[C@@H]3C1=O (stereo partly specified) : z-score at minimum -0.3?
Result block: no
